The measured values listed here are drawn from patent US20260083865A1.

Hi there, I'd appreciate the recorded IC50 for every entry that follows.
biological target: PSMA-expressing C4-2 cells (Homo sapiens, UniProt Q04609); construct: PSMA-expressing C4-2 cells (ATCC, Cat. No. CRL-3314) were cultured in RPMI-1640; host or cells: C4-2 cells; assay: FACS binding assay (competition with 50 nM PSM-0183); conditions: pIC50 category of FACS binding, C4-2 cells; read-out: pIC50 [C4-2] CAT (converted)
Sequence (Q04609 whole entry): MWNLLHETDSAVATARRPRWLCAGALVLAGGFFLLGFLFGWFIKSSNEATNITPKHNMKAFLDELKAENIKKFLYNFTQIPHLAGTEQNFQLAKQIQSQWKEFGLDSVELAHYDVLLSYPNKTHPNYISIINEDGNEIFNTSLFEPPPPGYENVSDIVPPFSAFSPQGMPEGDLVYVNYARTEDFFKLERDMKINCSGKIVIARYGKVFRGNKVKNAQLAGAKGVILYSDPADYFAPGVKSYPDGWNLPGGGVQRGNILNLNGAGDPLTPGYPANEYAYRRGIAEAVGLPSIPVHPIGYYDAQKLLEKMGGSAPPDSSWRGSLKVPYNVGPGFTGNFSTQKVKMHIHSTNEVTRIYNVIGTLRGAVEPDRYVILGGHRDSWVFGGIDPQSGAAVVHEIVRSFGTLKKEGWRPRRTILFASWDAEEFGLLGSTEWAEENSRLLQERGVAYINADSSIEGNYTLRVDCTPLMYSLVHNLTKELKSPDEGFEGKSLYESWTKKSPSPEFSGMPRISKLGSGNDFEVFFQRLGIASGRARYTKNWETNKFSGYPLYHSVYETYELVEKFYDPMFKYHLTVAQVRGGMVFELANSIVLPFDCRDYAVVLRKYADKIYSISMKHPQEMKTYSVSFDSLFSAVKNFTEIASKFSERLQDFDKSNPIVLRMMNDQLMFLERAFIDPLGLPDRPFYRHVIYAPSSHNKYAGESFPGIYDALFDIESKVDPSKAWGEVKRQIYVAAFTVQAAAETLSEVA
Numbered stars: 1 amine (or outer) side, 2 acyl side, 3 side chain; on linkers, the order of the positions; unused ones are H or OH. Bridge positions count the residues as written; N and C are the ends. Square brackets hold non-standard residues; d marks the D form. Side chains are listed from the residue outwards. Peptide text beside a SMILES is read from it. * marks the point of attachment. X3 = O=C(O)CN1CCN(CC(=O)O)CCN(CC(=O)NCCCOCCOCCOCCCN*)CCN(CC(=O)O)CC1; DOTA = O=C(O)CN1CCN(CC(=O)O)CCN(CC(=O)*)CCN(CC(=O)O)CC1; Phe(4-Cl) = N[C@@H](Cc1ccc(Cl)cc1)C(=O)O; Ethylenediamine = C(CN[*:2])N[*:1]; X1 = O=C(CC1CCN([*:1])CC1)[*:2]; Cit = NC(=O)NCCC[C@H](N)C(=O)O; NMeK = CN[C@@H](CCCCN)C(=O)O; Suc = O=C(CCC(=O)[*:2])[*:1]; Tle = CC(C)(C)[C@H](N)C(=O)O; 4Amb = NCc1ccc(C(=O)O)cc1; Aib = CC(C)(N)C(=O)O; Ahx = NCCCCCC(=O)O; βAla = NCCC(=O)O

Report measured IC50 on PSMA-expressing C4-2 cells (Homo sapiens, UniProt Q04609); entry: CC(=O)N[C@H](C(=O)NC(C)(C)C(=O)N[C@@H](Cc1ccc(Cl)cc1)C(=O)N[C@H]1CSSC[C@@H](C(=O)N[C@H](C(=O)NCCC(N)=O)C(C)(C)C)NC(=O)[C@H](CC(N)=O)NC(=O)C(C)(C)NC(=O)[C@H](CCCNC(=N)N)NC(=O)[C@H](CCCCN)NC1=O)[C@@H](C)O [PSM-0514] (Ac-T[Aib][Phe(4-Cl)]CKR[Aib]NC[Tle][βAla]-NH2; disulfide 4-9) < 200 nM

Report measured IC50 on PSMA-expressing C4-2 cells (Homo sapiens, UniProt Q04609); entry: CC(=O)N[C@H](C(=O)NC(C)(C)C(=O)N[C@@H](Cc1ccccc1)C(=O)N[C@H]1CSSC[C@@H](C(=O)N[C@H](C(=O)N[C@@H](CCC(N)=O)C(N)=O)C(C)(C)C)NC(=O)[C@H](CC(N)=O)NC(=O)C(C)(C)NC(=O)[C@H](CCCNC(=N)N)NC(=O)[C@H](CCCCN)NC1=O)[C@@H](C)O [PSM-0540] (Ac-T[Aib]FCKR[Aib]NC[Tle]Q-NH2; disulfide 4-9) < 200 nM

Report measured IC50 on PSMA-expressing C4-2 cells (Homo sapiens, UniProt Q04609); entry: CC(=O)N[C@H](C(=O)NC(C)(C)C(=O)N[C@@H](Cc1ccccc1)C(=O)N[C@H]1CSSC[C@@H](C(=O)N[C@H](C(=O)N[C@H](C(=O)N[C@@H](CC(=O)O)C(N)=O)[C@@H](C)O)C(C)(C)C)NC(=O)[C@H](CC(N)=O)NC(=O)[C@H](CCCCNC(=O)CCC(=O)NCCCOCCOCCOCCCNC(=O)CN2CCN(CC(=O)O)CCN(CC(=O)O)CCN(CC(=O)O)CC2)NC(=O)[C@H](CCCNC(=N)N)NC(=O)[C@H](CCCCN)NC1=O)[C@@H](C)O [PSM-0542] (Ac-T[Aib]FCKRK([Suc-X3])NC[Tle]TD-NH2; disulfide 4-9) < 200 nM

Report measured IC50 on PSMA-expressing C4-2 cells (Homo sapiens, UniProt Q04609); entry: CC(C)(NC(=O)c1ccc(CNC(=O)CN2CCN(CC(=O)O)CCN(CC(=O)O)CCN(CC(=O)O)CC2)cc1)C(=O)N[C@@H](Cc1ccccc1)C(=O)N[C@H]1CSSC[C@@H](C(=O)N[C@H](C(N)=O)C(C)(C)C)NC(=O)[C@H](CC(N)=O)NC(=O)C(C)(C)NC(=O)[C@H](CCCNC(=N)N)NC(=O)[C@H](CCCCN)NC1=O [PSM-0458] ({DOTA-4Amb}-[Aib]FCKR[Aib]NC[Tle]-NH2; disulfide 3-8) < 200 nM

Report measured IC50 on PSMA-expressing C4-2 cells (Homo sapiens, UniProt Q04609); entry: CC(=O)N[C@H](C(=O)NC(C)(C)C(=O)N[C@@H](Cc1ccccc1)C(=O)N[C@H]1CSSC[C@@H](C(=O)N[C@H](C(=O)N[C@H](C(N)=O)[C@@H](C)O)C(C)(C)C)NC(=O)[C@H](CC(N)=O)NC(=O)C(C)(C)NC(=O)[C@H](CCCNC(=N)N)NC(=O)[C@H](CCCCN)N(C)C1=O)[C@@H](C)O [PSM-0451] (Ac-T[Aib]FC[NMeK]R[Aib]NC[Tle]T-NH2; disulfide 4-9) 200 to 1260 nM

Report measured IC50 on PSMA-expressing C4-2 cells (Homo sapiens, UniProt Q04609); entry: C[C@@H](O)[C@H](NC(=O)[C@@H](NC(=O)[C@@H]1CSSC[C@H](NC(=O)[C@H](Cc2ccccc2)NC(=O)C(C)(C)NC(=O)CCCCCNC(=O)CN2CCN(CC(=O)O)CCN(CC(=O)O)CCN(CC(=O)O)CC2)C(=O)N[C@@H](CCCCN)C(=O)N[C@@H](CCCNC(=N)N)C(=O)NC(C)(C)C(=O)N[C@@H](CC(N)=O)C(=O)N1)C(C)(C)C)C(N)=O [PSM-0513] ({DOTA-Ahx}-[Aib]FCKR[Aib]NC[Tle]T-NH2; disulfide 3-8) < 200 nM

Report measured IC50 on PSMA-expressing C4-2 cells (Homo sapiens, UniProt Q04609); entry: CC(=O)N1CCC(CC(=O)N[C@H](C(=O)NC(C)(C)C(=O)N[C@@H](Cc2ccc(Cl)cc2)C(=O)N[C@H]2CSSC[C@@H](C(=O)N[C@H](C(=O)NCCNC(=O)CN3CCN(CC(=O)O)CCN(CC(=O)O)CCN(CC(=O)O)CC3)C(C)(C)C)NC(=O)[C@H](CC(N)=O)NC(=O)C(C)(C)NC(=O)[C@H](CCCNC(=N)N)NC(=O)[C@H](CCCCN)NC2=O)[C@@H](C)O)CC1 [PSM-0379] (Ac-[X1]T[Aib][Phe(4-Cl)]CKR[Aib]NC[Tle]-{Ethylenediamine-DOTA}; disulfide 5-10) < 200 nM

Report measured IC50 on PSMA-expressing C4-2 cells (Homo sapiens, UniProt Q04609); entry: CC(=O)NCCCC[C@@H]1NC(=O)[C@@H](NC(=O)[C@H](Cc2ccc(Cl)cc2)NC(=O)C(C)(C)NC(=O)[C@@H](NC(=O)CC2CCN(C(=O)CN3CCN(CC(=O)O)CCN(CC(=O)O)CCN(CC(=O)O)CC3)CC2)[C@@H](C)O)CSSC[C@@H](C(=O)N[C@H](C(=O)N[C@H](C(N)=O)[C@@H](C)O)C(C)(C)C)NC(=O)[C@H](CC(N)=O)NC(=O)C(C)(C)NC(=O)[C@H](CCCNC(=N)N)NC1=O [PSM-0466] ({DOTA}-[X1]T[Aib][Phe(4-Cl)]CK(Ac)R[Aib]NC[Tle]T-NH2; disulfide 5-10) 200 to 1260 nM

Report measured IC50 on PSMA-expressing C4-2 cells (Homo sapiens, UniProt Q04609); entry: C[C@@H](O)[C@H](NC(=O)[C@@H](NC(=O)[C@@H]1CSSC[C@H](NC(=O)[C@H](Cc2ccc(Cl)cc2)NC(=O)C(C)(C)NC(=O)[C@@H](NC(=O)CC2CCN(C(=O)CN3CCN(CC(=O)O)CCN(CC(=O)O)CCN(CC(=O)O)CC3)CC2)[C@@H](C)O)C(=O)N[C@@H](CCCCN)C(=O)N[C@@H](CCCNC(N)=O)C(=O)NC(C)(C)C(=O)N[C@@H](CC(N)=O)C(=O)N1)C(C)(C)C)C(N)=O [PSM-0365] ({DOTA}-[X1]T[Aib][Phe(4-Cl)]CK[Cit][Aib]NC[Tle]T-NH2; disulfide 5-10) < 200 nM
